Attribution: patent US20240041042A1

System: Polygonum convolvulus (POLCO)
Assay: Post-emergence herbicidal action against POLCO
Format: in vivo
Conditions: dosage 320 g/ha
List of Post-emergence action against POLCO in % values.
Reply with just the number (in %).

compound="COC(=O)[C@@H](C)Oc1nn(-c2ccccn2)c(-c2ccc(Cl)nc2)c1Br [Example I-242]" value_type="Post-emergence action against POLCO in %" test_result=80

Look at this compound and give its reported Post-emergence action against POLCO in %. O=C(O)COc1nn(-c2ccccn2)c(-c2cncnc2)c1Br [Example I-66]
90

Look at this compound and give its reported Post-emergence action against POLCO in %. CCOC(=O)CNC(=O)COc1nn(-c2ncccc2F)c(-c2ccc(OC)nc2)c1Br [Example I-48]
90

Look at this compound and give its reported Post-emergence action against POLCO in %. C[C@@H](Oc1nn(-c2ncccc2F)c(-c2cncc(F)c2)c1Cl)C(=O)O [Example I-165]
90

Look at this compound and give its reported Post-emergence action against POLCO in %. CCOC(=O)COc1nn(-c2nc(F)ccc2F)c(-c2ccc(F)nc2)c1Cl [Example I-315]
80

Look at this compound and give its reported Post-emergence action against POLCO in %. O=C(COc1nn(-c2ncccc2F)c(-c2ccc(F)nc2)c1C1CC1)OCC1CCCO1 (centres unmarked) [Example I-274]
80

Look at this compound and give its reported Post-emergence action against POLCO in %. C[C@@H](Oc1nn(-c2nc(F)ccc2F)c(-c2ccc(F)nc2)c1Cl)C(=O)O [Example I-311]
80

Look at this compound and give its reported Post-emergence action against POLCO in %. COC(=O)C(C)COC(=O)[C@@H](C)Oc1nn(-c2ccccn2)c(-c2cncc(F)c2)c1Br (some centres unmarked) [Example I-188]
80
